Ref: patent US7122554B2

# target-under-test: human recombinant PDE5 (Homo sapiens, UniProt O76074)
# method: Inhibitory effect on cGMP-PDE (PDE5 IC50, one-step assay)
# measurement-context: human recombinant PDE5, 0.15 μM 8-[H3]-cGMP, 30 minutes incubation
The following molecules are listed with their measured pIC50 values.
In textbook form, pIC50 equals minus log to base ten of the concentration in mol/L.

Q. Fill in the blank: the reported pIC50 of O=C(Nc1ccccc1)C(=O)N1CCc2c([nH]c3ccccc23)[C@H]1c1ccc2c(c1)OCO2 is ____.
A. 6.78

Q. Would you mind doing O=C(O)c1ccc(CNC(=S)N2CCc3c([nH]c4ccccc34)[C@H]2c2ccc3c(c2)OCO3)cc1 as well?
A. 7.44
